- Tested on: Fibroblast
- protocol: Multiplex assay against human fibroblast
- Type: toxicity, cell-based
- condition.set: 24 h, 1 µM, compound concentration 1 uM, replicate 2
experimental.readout: Population Tubulin-Different-Phenotype (%)
Answers are plain numbers, in %.

Example entries begin here.
Nc1nc(-c2ccco2)c2cnn(Cc3ccccc3F)c2n1    37
COc1cc2nc(N3CCN(C(=O)COc4c(OC)cccc4C(C)C)CC3)nc(N)c2cc1OC.Cl.Cl    50
COc1ccc2c(c1OCc1ccccc1)C[C@@H](C(=O)O)N(C(=O)C(c1ccccc1)c1ccccc1)C2    46
O=C(Nc1cc(-c2ccccc2)nn1-c1ccccc1F)c1ccc([N+](=O)[O-])cc1    52
COc1cc2nc(N3CCN(C(=O)c4ccco4)CC3)nc(N)c2cc1OC.Cl [PRAZOSIN HYDROCHLORIDE]    58

// batch mode: one Population Tubulin-Different-Phenotype (%) value per listed entry
1. COc1c(Nc2ccc(S(C)(=O)=O)nc2C)ncnc1OC1CCN(C(=O)OC(C)C)CC1
2. CC(C)(O)C(=O)N1CCN(c2ccc(C(F)(F)F)c(C3=C(c4c[nH]c5ccccc45)C(=O)NC3=O)c2)CC1
3. Nc1nc(CC(=O)Nc2ccc(CCNC[C@H](O)c3ccccc3)cc2)cs1

# output
[48, 58, 45]

* * *

- Tested on: Fibroblast
- protocol: Multiplex assay against human fibroblast
- Assay type: toxicity, cell-based
- condition.set: 12 h, 10 µM, compound concentration 10 uM, replicate 1
For each entry below, report its Population Hoechst High Intensity Objects (%) value.
Give bare numbers, in %.

Example entries begin here.
CN1C[C@H](C(=O)N[C@]2(C)O[C@@]3(O)[C@@H]4CCCN4C(=O)[C@H](Cc4ccccc4)N3C2=O)C[C@@H]2c3cccc4[nH]cc(c34)C[C@H]21.CS(=O)(=O)O [DIHYDROERGOTAMINE MESYLATE]    0
COc1ccc2[nH]c(I)c(CCNC(C)=O)c2c1    2
CC(C)(O)C(=O)N1CCN(c2ccc(C(F)(F)F)c(C3=C(c4c[nH]c5ccccc45)C(=O)NC3=O)c2)CC1    4

// batch mode: one Population Hoechst High Intensity Objects (%) value per listed entry
1. O=c1ccc2ccc(OCCCCN3CCN(c4cccc5sccc45)CC3)cc2[nH]1
2. COc1cc(OC2CCN(C(C)=O)CC2)ccc1C(=O)N1CCC(N2C(=O)OCc3ccccc32)CC1
3. S=C(NCCCc1c[nH]cn1)NCCCN(Cc1ccc(Cl)c(Cl)c1)c1ccc(Br)cn1
4. CN1CCN2c3ccccc3Cc3ccccc3C2C1.Cl (stereo not drawn) [MIANSERIN HYDROCHLORIDE]
5. O=C(Nc1cc(-c2ccccc2)nn1-c1ccccc1F)c1ccc([N+](=O)[O-])cc1

# output
1. 1
2. 3
3. 3
4. 5
5. 2

* * *

- Tested on: U2OS
- protocol: Multiplex assay against U2OS
- Type: toxicity, cell-based
- condition.set: human, 48 h, 10 µM, compound concentration 10 uM, replicate 1
Non-standard residues stand in square brackets, D forms with d. Residues, ends and D or L forms follow the SMILES beside them.
For each entry below, report its Population Mitochondria Different-Phenotype (%) value.
Give bare numbers, in %.

Example entries begin here.
COc1cc(Nc2ncc3c(n2)-c2ccc(Cl)cc2C(c2c(F)cccc2OC)=NC3)ccc1C(=O)O    9
CC(C)C[C@@H]1NC(=O)[C@@H](C(C)C)NC(=O)[C@@H]2CCCN2C(=O)[C@@H](CC(=O)O)NC(=O)[C@@H](Cc2c[nH]c3ccccc23)NC1=O [BQ-123] (cyclo(L[dW][dD]P[dV]))    2
COc1cc(OC2CCN(C(C)=O)CC2)ccc1C(=O)N1CCC(N2C(=O)OCc3ccccc32)CC1    4
CSc1nc(NC2CCCC2)c([N+](=O)[O-])c(NC2CCCC2)n1    1
Cc1sc2c(c1C)C(c1ccc(Cl)cc1)=N[C@H](CC(=O)OC(C)(C)C)c1nnc(C)n1-2    7
S=C(NCCCc1c[nH]cn1)NCCCN(Cc1ccc(Cl)c(Cl)c1)c1ccc(Br)cn1    20

# input Quick check: Population Mitochondria Different-Phenotype (%) of `Cc1cc(-c2ccc3c(c2)CC[C@H]3N2CC3(CCN(C(=O)Cc4cn5cc(C)sc5n4)CC3)C2)ncn1` ?
# output 2

* * *

- System: Fibroblast
- protocol: Multiplex assay against human fibroblast
- Assay type: toxicity, cell-based
- condition.set: 48 h, 10 µM, compound concentration 10 uM, replicate 1
For each entry below, report its Total Cell Count value.
One number for each entry.

CCn1c(-c2nc3cc(C(=O)N4CCCC(N)C4)ccc3n2C)cc2ccccc21.Cl (configuration not stated)    232
COc1cc(Nc2ncc3c(n2)-c2ccc(Cl)cc2C(c2c(F)cccc2OC)=NC3)ccc1C(=O)O [ALISERTIB]    188
CCc1nn2c(C)cc(C)nc2c1Cc1ccc(-c2nnc(C3CCNCC3)o2)cc1    208
Cc1nn(C)c2nc(NNC(=O)Nc3cc(Cl)nc(Cl)c3)cc(C(C)C)c12    129
CC(C)C[C@H](CO)Nc1nc(S[C@@H](C)c2ccccc2)nc2nc(N)sc12 [AZD-8797]    168
O=C(Nc1cc(-c2ccccc2)nn1-c1ccccc1F)c1ccc([N+](=O)[O-])cc1    160
N[C@](CC1c2ccccc2Oc2ccccc21)(C(=O)O)[C@H]1C[C@@H]1C(=O)O    198
C=CCN1C[C@H](C(=O)N(CCCN(C)C)C(=O)NCC)C[C@@H]2c3cccc4[nH]cc(c34)C[C@H]21 [CABERGOLINE]    282

// batch mode: one Total Cell Count value per listed entry
1. CN(C)C(=O)Cn1cc(-c2ccc(-c3nnc4ccccn34)cc2)cn1
2. CCCCCCNC(=O)Nc1ccc(S(=O)(=O)Nc2ccc(CCNC[C@H](O)COc3ccc(O)cc3)cc2)cc1 [L-755507]
3. CN1C[C@H](C(=O)N[C@]2(C)O[C@@]3(O)[C@@H]4CCCN4C(=O)[C@H](Cc4ccccc4)N3C2=O)C[C@@H]2c3cccc4[nH]cc(c34)C[C@H]21.CS(=O)(=O)O [DIHYDROERGOTAMINE MESYLATE]
4. COc1ccc2c(c1OCc1ccccc1)C[C@@H](C(=O)O)N(C(=O)C(c1ccccc1)c1ccccc1)C2 [OLODANRIGAN]
5. C[C@H](NC(=O)CNC(=O)c1cccc(Cl)c1)c1ccccc1
6. OCCCNc1cc(-c2ccnc(Nc3cccc(Cl)c3)n2)ccn1
7. CN1CCC(C(=O)c2cccc(NC(=O)c3c(F)cc(F)cc3F)n2)CC1
8. CN(C)C/C=C/C(=O)Nc1ccc(C(=O)N2CCCC(Nc3ncc(Cl)c(-c4c[nH]c5ccccc45)n3)C2)cc1 (configuration not stated)

# output
1. 137
2. 240
3. 91
4. 146
5. 112
6. 134
7. 272
8. 103

# input Quick check: Total Cell Count of `COCCn1c(C)c(C)s/c1=N\C(=O)C1C(C)(C)C1(C)C` ?
# output 151

* * *

- Tested on: HEK-293T
- protocol: Multiplex assay against HEK293T
- Format: toxicity, cell-based
- condition.set: human, 12 h, 1 µM, compound concentration 1 uM, replicate 1
Note to self: use criterion met only for Population Mitochondria Different-Phenotype (%) readings below 40%; a reading exactly at 40% still gets criterion not met.

Worked cases, answers included:
S=C(NCCCc1c[nH]cn1)NCCCN(Cc1ccc(Cl)c(Cl)c1)c1ccc(Br)cn1    criterion not met
Cc1cc(O)c(-c2ccc([C@@H](C)CN(C)C)cc2)c2c1[nH]c(=O)c1sccc12    criterion not met
COCCCN1CCC(NC(=O)c2cc(Cl)c(N)c3c2OCC3)CC1 [PRUCALOPRIDE]    criterion met
Nc1nc(-c2ccco2)c2cnn(Cc3ccccc3F)c2n1    criterion not met
COc1ccc2[nH]c(I)c(CCNC(C)=O)c2c1    criterion not met
C[C@@H]1CC(=O)Nc2cccc(-c3ccc4c(c3)c(-c3cnn(C)c3)nn4C)c2N1    criterion not met

# input Dear colleague, could you confirm whether Population Mitochondria Different-Phenotype (%) of `Cc1c(Cc2ccc3ccccc3n2)c2cc(F)ccc2n1CC(=O)O` falls below 40%? Thanks.
# output criterion met

* * *

- System: HEK-293T
- protocol: Multiplex assay against HEK293T
- Format: toxicity, cell-based
- condition.set: human, 24 h, 1 µM, compound concentration 1 uM, replicate 1
experimental.readout: Population Mitochondria Different-Phenotype (%)
One number for each entry, in %.

Example entries begin here.
O=C(Nc1cc(-c2ccccc2)nn1-c1ccccc1F)c1ccc([N+](=O)[O-])cc1    21
N[C@](CC1c2ccccc2Oc2ccccc21)(C(=O)O)[C@H]1C[C@@H]1C(=O)O    24
COc1cc(C(=O)N2CC[C@@H](O)[C@@H](N)C2)cc2nc(-c3cc4ccccc4n3CC3CC3)n(C)c12.Cl    42
Cn1cc(C(=O)OCC2CCN(CCNS(C)(=O)=O)CC2)c2ccccc21    21

# input Checklist item: Population Mitochondria Different-Phenotype (%) tested on HEK-293T, entry Cc1ccc(OCC(O)C(C)NC(C)C)c2c1CCC2.Cl (stereo not given) , value?
# output 38
